# Test system: E. coli MP-4
# assay overview: MIC determination by CLSI broth dilution, E. coli MP-4
# Format: cell-based
# condition summary: Escherichia coli, MP4, CLSI broth dilution; strain MP-4
The compounds listed here are annotated with their MIC.
attribute measured: MIC

compound=CO[C@]1(C)C[C@@H](C)CN(C)[C@@H](CN2CCN(S(=O)(=O)c3cn(C)cn3)CC2)[C@H](C)OC(=O)C(C)(C)C(=O)[C@H](C)[C@H]1O[C@@H]1O[C@H](C)C[C@H](N(C)C)[C@H]1O attribute_measured=MIC result_value="> 32 µg/mL"
compound="CO[C@]1(C)C[C@@H](C)CN[C@H](CCSC)COC(=O)[C@H](C)C(=O)[C@H](C)[C@H]1O[C@@H]1OC(C)CC(N(C)C)C1O (some centres unmarked)" attribute_measured=MIC result_value="> 32 µg/mL"
compound=CO[C@]1(C)C[C@@H](C)CN(C)[C@H](CCCN(C)C(C)C)COC(=O)C(C)(C)C(=O)[C@H](C)[C@H]1O[C@@H]1O[C@H](C)C[C@H](N(C)C)[C@H]1O attribute_measured=MIC result_value="< 4 µg/mL"
compound=CO[C@]1(C)C[C@@H](C)CN(C)[C@H]([C@H](O)CCN2CCCC2)COC(=O)C(C)(C)C(=O)[C@H](C)[C@H]1O[C@@H]1O[C@H](C)C[C@H](N(C)C)[C@H]1O attribute_measured=MIC result_value="< 4 µg/mL"
compound=CCN(C)CC[C@@H](O)[C@@H]1COC(=O)C(C)(C)C(=O)[C@H](C)[C@@H](O[C@@H]2O[C@H](C)C[C@H](N(C)C)[C@H]2O)[C@](C)(OC)C[C@@H](C)CN1CC attribute_measured=MIC result_value="< 4 µg/mL"

---

# Tested on: K. pneumoniae MP-648
# assay overview: MIC determination by CLSI broth dilution, K. pneumoniae MP-648
# Type: cell-based
# condition summary: Klebsiella pneumoniae, MP648, CLSI broth dilution; strain MP-648
The compounds listed here are annotated with their MIC.
attribute measured: MIC

compound=CCCCCCCN1CCC([C@@H](O)[C@H]2COC(=O)C(C)(C)C(=O)[C@H](C)[C@@H](O[C@@H]3O[C@H](C)C[C@H](N(C)C)[C@H]3O)[C@](C)(OC)C[C@@H](C)CN2C)CC1 subject_of_test="K. pneumoniae MP-648" result_value="> 32 µg/mL"
compound=CCCCCCCN1CCC(C[C@@H]2COC(=O)[C@@](C)(CCC)C(=O)[C@H](C)[C@@H](O[C@@H]3O[C@H](C)C[C@H](N(C)C)[C@H]3O)[C@](C)(OC)C[C@@H](C)CN2C)CC1 subject_of_test="K. pneumoniae MP-648" result_value="4 to 32 µg/mL"
compound=CCCN1CC(C[C@@H]2COC(=O)C(C)(C)C(=O)[C@H](C)[C@@H](O[C@@H]3O[C@H](C)C[C@H](N(C)C)[C@H]3O)[C@](C)(OC)C[C@@H](C)CN2C)C1 subject_of_test="K. pneumoniae MP-648" result_value="> 32 µg/mL"
compound=CO[C@]1(C)C[C@@H](C)CN(C)[C@@H](CCCN2CCNC(=O)C2)COC(=O)C(C)(C)C(=O)[C@H](C)[C@H]1O[C@@H]1O[C@H](C)C[C@H](N(C)C)[C@H]1O subject_of_test="K. pneumoniae MP-648" result_value="> 32 µg/mL"
compound=CCN1CCN(C[C@H]2COC(=O)C(C)(C)C(=O)[C@H](C)[C@@H](O[C@@H]3O[C@H](C)C[C@H](N(C)C)[C@H]3O)[C@](C)(OC)C[C@@H](C)CN2CC)CC1 subject_of_test="K. pneumoniae MP-648" result_value="4 to 32 µg/mL"
compound=CCCN1CC=C(C[C@@H]2COC(=O)C(C)(C)C(=O)[C@H](C)[C@@H](O[C@@H]3O[C@H](C)C[C@H](N(C)C)[C@H]3O)[C@](C)(OC)C[C@@H](C)CN2C)CC1 subject_of_test="K. pneumoniae MP-648" result_value="4 to 32 µg/mL"
compound=COC(CN1CCC(C[C@@H]2COC(=O)C(C)(C)C(=O)[C@H](C)[C@@H](O[C@@H]3O[C@H](C)C[C@H](N(C)C)[C@H]3O)[C@](C)(OC)C[C@@H](C)CN2C)CC1)OC subject_of_test="K. pneumoniae MP-648" result_value="4 to 32 µg/mL"
compound=CO[C@]1(C)C[C@@H](C)CN(C)[C@@H]([C@H](O)C2CCN(CC3CCCCC3)CC2)COC(=O)C(C)(C)C(=O)[C@H](C)[C@H]1O[C@@H]1O[C@H](C)C[C@H](N(C)C)[C@H]1O subject_of_test="K. pneumoniae MP-648" result_value="4 to 32 µg/mL"
compound=COCO[C@@H](C1CCN(CC2CC2)CC1)[C@@H]1COC(=O)C(C)(C)C(=O)[C@H](C)[C@@H](O[C@@H]2O[C@H](C)C[C@H](N(C)C)[C@H]2O)[C@](C)(OC)C[C@@H](C)CN1C subject_of_test="K. pneumoniae MP-648" result_value="> 32 µg/mL"
compound=CCCN1CCC(C[C@@H]2COC(=O)C(C)(C)C(=O)[C@H](C)[C@@H](O[C@@H]3O[C@H](C)C[C@H](N(C)C)[C@H]3O)[C@](C)(OC)C[C@@H](C)CN2CCC)CC1 subject_of_test="K. pneumoniae MP-648" result_value="4 to 32 µg/mL"
compound=CCN1C[C@H](C)C[C@@](C)(OC)[C@H](O[C@@H]2O[C@H](C)C[C@H](N(C)C)[C@H]2O)[C@@H](C)C(=O)C(C)(C)C(=O)OC[C@@H]1CCCN1CCCC1 subject_of_test="K. pneumoniae MP-648" result_value="< 4 µg/mL"
compound=CCCN1C[C@H](C)C[C@@](C)(OC)[C@H](O[C@@H]2O[C@H](C)C[C@H](N(C)C)[C@H]2O)[C@@H](C)C(=O)C(C)(C)C(=O)OC[C@H]1CCCN1CCCC1 subject_of_test="K. pneumoniae MP-648" result_value="< 4 µg/mL"
compound=CO[C@]1(C)C[C@@H](C)CN(C)[C@@H](CCCN2CCC(C)(C)CC2)COC(=O)C(C)(C)C(=O)[C@H](C)[C@H]1O[C@@H]1O[C@H](C)C[C@H](N(C)C)[C@H]1O subject_of_test="K. pneumoniae MP-648" result_value="< 4 µg/mL"
compound=CCCCCCCN1CCC(C[C@@H]2COC(=O)[C@@](C)(Cc3ccccc3)C(=O)[C@H](C)[C@@H](O[C@@H]3O[C@H](C)C[C@H](N(C)C)[C@H]3O)[C@](C)(OC)C[C@@H](C)CN2C)CC1 subject_of_test="K. pneumoniae MP-648" result_value="4 to 32 µg/mL"
compound=CO[C@]1(C)C[C@@H](C)CN(C)[C@](C)(C[C@H]2C[C@H](N(C)C(C)C)C2)COC(=O)C(C)(C)C(=O)[C@H](C)[C@H]1O[C@@H]1O[C@H](C)C[C@H](N(C)C)[C@H]1O subject_of_test="K. pneumoniae MP-648" result_value="> 32 µg/mL"
compound=CO[C@]1(C)C[C@@H](C)CN(C)[C@H]([C@H](O)CCN2CCCC2)COC(=O)C(C)(C)C(=O)[C@H](C)[C@H]1O[C@@H]1O[C@H](C)C[C@H](N(C)C)[C@H]1O subject_of_test="K. pneumoniae MP-648" result_value="< 4 µg/mL"
compound=CO[C@]1(C)C[C@@H](C)CN(C)[C@H](C[C@H]2C[C@H](N(C)C)C2)COC(=O)C(C)(C)C(=O)[C@H](C)[C@H]1O[C@@H]1O[C@H](C)C[C@H](N(C)C)[C@H]1O subject_of_test="K. pneumoniae MP-648" result_value="< 4 µg/mL"
compound=CO[C@]1(C)C[C@@H](C)CN(C)[C@H]([C@](C)(O)CCN2CCCC2)COC(=O)C(C)(C)C(=O)[C@H](C)[C@H]1O[C@@H]1O[C@H](C)C[C@H](N(C)C)[C@H]1O subject_of_test="K. pneumoniae MP-648" result_value="> 32 µg/mL"
compound="CO[C@]1(C)C[C@@H](C)CN(C)[C@@H](CC2CCN(CC3CC=CCC3)CC2)COC(=O)C(C)(C)C(=O)[C@H](C)[C@H]1O[C@@H]1O[C@H](C)C[C@H](N(C)C)[C@H]1O (stereo partly shown)" subject_of_test="K. pneumoniae MP-648" result_value="4 to 32 µg/mL"

---

# Test system: K. pneumoniae MP-546
# assay overview: MIC determination by CLSI broth dilution, K. pneumoniae MP-546
# Assay type: cell-based
# condition summary: Klebsiella pneumoniae, MP546, CLSI broth dilution; strain MP-546
The compounds listed here are annotated with their MIC.
attribute measured: MIC

given_smiles=CCCN1CCC(=C[C@@H]2COC(=O)C(C)(C)C(=O)[C@H](C)[C@@H](O[C@@H]3O[C@H](C)C[C@H](N(C)C)[C@H]3O)[C@](C)(OC)C[C@@H](C)CN2C)CC1 subject_of_test="K. pneumoniae MP-546" attribute_measured=MIC result_value="< 4 µg/mL"
given_smiles=CCCN1CC(C[C@@H]2COC(=O)C(C)(C)C(=O)[C@H](C)[C@@H](O[C@@H]3O[C@H](C)C[C@H](N(C)C)[C@H]3O)[C@](C)(OC)C[C@@H](C)CN2C)C1 subject_of_test="K. pneumoniae MP-546" attribute_measured=MIC result_value="4 to 32 µg/mL"
given_smiles=CCCN1C[C@H](C)C[C@@](C)(OC)[C@H](O[C@@H]2O[C@H](C)C[C@H](N(C)C)[C@H]2O)[C@@H](C)C(=O)C(C)(C)C(=O)OC[C@H]1CCCN1Cc2ccccc2C1 subject_of_test="K. pneumoniae MP-546" attribute_measured=MIC result_value="< 4 µg/mL"
